Biological target: glucocerebrosidase (GCase), recombinant wt. enzyme velaglucerase alfa (Homo sapiens, UniProt P04062)
Construct: purchased Shire Human Genetic Therapies, Inc. Vpriv
Sequence (P04062 40-536): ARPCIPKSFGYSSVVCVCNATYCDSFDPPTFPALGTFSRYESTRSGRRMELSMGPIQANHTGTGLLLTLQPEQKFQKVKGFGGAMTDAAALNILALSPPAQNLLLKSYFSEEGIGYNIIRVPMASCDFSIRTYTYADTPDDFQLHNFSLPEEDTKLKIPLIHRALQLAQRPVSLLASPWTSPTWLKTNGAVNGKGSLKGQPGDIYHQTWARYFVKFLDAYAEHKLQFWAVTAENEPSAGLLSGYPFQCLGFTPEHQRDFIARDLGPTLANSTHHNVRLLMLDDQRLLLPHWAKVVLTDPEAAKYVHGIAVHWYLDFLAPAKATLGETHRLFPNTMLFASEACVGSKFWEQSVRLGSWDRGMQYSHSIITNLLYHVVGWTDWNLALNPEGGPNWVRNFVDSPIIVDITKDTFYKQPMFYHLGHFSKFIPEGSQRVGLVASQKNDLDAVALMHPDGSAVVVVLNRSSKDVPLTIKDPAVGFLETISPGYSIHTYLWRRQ
Assay: Glucocerebrosidase activity assay with blue substrate (4MU-Glc)
Type: biochemical
Settings: Table 1; titration 24 nM to 50 μM; substrate not given; read-out: Ac50
Quick list: AC50 per entry.
Field format: number, assumed µM, no unit text.

Input Cc1cc(C)n2ccc(C(=O)Nc3nc4cc(F)ccc4s3)c2n1 [compound 42] . Output AC50: 50.2

Next:
Cc1cc(C)n2ccc(C(=O)Nc3ccc(-c4cn(CCOCCOCCOCCN)nn4)cc3)c2n1 [compound 66] yielded AC50 of 7.94

Kindly note the recorded AC50 for Cc1cc(C)n2ccc(C(=O)Nc3ccc(C(=O)c4ccccc4)cc3)c2n1 [compound 53] , which is 0.14

Sample Cc1cc(C)n2ccc(C(=O)Nc3ccc(CCN4CCOCC4)cc3)c2n1 [compound 14] ; AC50 observed: 31.6

Looking up Cc1cc(C)n2ccc(C(=O)Nc3nc4cc(Cl)ccc4s3)c2n1 [compound 41] , I found its AC50 recorded as 39.9

====

Biological target: glucocerebrosidase (GCase), recombinant wt. enzyme velaglucerase alfa (Homo sapiens, UniProt P04062)
Construct: purchased Shire Human Genetic Therapies, Inc. Vpriv
Experiment: Glucocerebrosidase activity assay with blue substrate (4MU-Glc)
Assay type: biochemical
Conditions: Table 1; titration 24 nM to 50 μM; substrate not given; read-out: Ac50
Flag rule - AC50 less than 4 µM flags Condition met; the remaining entries get Condition not met.

Worked cases, answers included:
# input API: query returns whether the compound falls strictly under 4 µM in AC50. Query: Cc1cc(C)n2ccc(C(=O)Nc3ccc(-c4cn(CCCCC(=O)ON5C(=O)CCC5=O)nn4)cc3)c2n1 [compound 60]
# output Condition met

# input Bench note: check whether Cc1cc(C)n2ccc(C(=O)Nc3ccc(N=[N+]=[N-])cc3)c2n1 [compound 52] shows AC50 below 4 µM
# output Condition met

Next:
# input Quick check: AC50 of C#Cc1ccc(NC(=O)c2ccn3c(C)cc(C)nc23)cc1 [compound 1] under 4 µM?
# output Condition met

# input Could you please tell me whether AC50 recorded for Cc1cc(C)n2ccc(C(=O)Nc3ccc(-c4cn(CCOCCOCCC(=O)NC5CCCCC5)nn4)cc3)c2n1 [compound 69] is less than 4 µM?
# output Condition met

# input Strictly below 4 µM in AC50? Cc1cc(C)n2ccc(C(=O)Nc3cnn4c(C)cc(C)nc34)c2n1 [compound 46]
# output Condition met

# input Item Cc1cc(C)n2ccc(C(=O)Nc3ccc(-c4cn(CCCCCCCCC(=O)O)nn4)cc3)c2n1 [compound 59] : AC50 beneath 4 µM, strictly?
# output Condition met

# input Hello, is AC50 of the following compound strictly smaller than 4 µM? Cc1cc(C)n2ccc(C(=O)Nc3ccc(-n4ccnc4)cc3)c2n1 [compound 36]
# output Condition not met

# input Dear reviewer, please state whether Cc1cc(C)n2ccc(C(=O)Nc3ccc(CN4CCOCC4)cc3)c2n1 [compound 7] has AC50 strictly beneath 4 µM.
# output Condition not met

# input Just wondering, is AC50 of Cc1cc(C)n2ccc(C(=O)Nc3ccc(CN(C)C)cc3)c2n1 [compound 20] below 4 µM?
# output Condition not met

# input Does the reported AC50 of the following compound sit strictly below 4 µM? Cc1cc(C)n2ccc(C(=O)Nc3ccc(C#Cc4ccccc4)cc3)c2n1 [compound 38]
# output Condition met
